Attribute: pIC50
# Target Or Test System: USP1/UAF1 enzyme (Homo sapiens)
# Sequence (O94782 whole entry): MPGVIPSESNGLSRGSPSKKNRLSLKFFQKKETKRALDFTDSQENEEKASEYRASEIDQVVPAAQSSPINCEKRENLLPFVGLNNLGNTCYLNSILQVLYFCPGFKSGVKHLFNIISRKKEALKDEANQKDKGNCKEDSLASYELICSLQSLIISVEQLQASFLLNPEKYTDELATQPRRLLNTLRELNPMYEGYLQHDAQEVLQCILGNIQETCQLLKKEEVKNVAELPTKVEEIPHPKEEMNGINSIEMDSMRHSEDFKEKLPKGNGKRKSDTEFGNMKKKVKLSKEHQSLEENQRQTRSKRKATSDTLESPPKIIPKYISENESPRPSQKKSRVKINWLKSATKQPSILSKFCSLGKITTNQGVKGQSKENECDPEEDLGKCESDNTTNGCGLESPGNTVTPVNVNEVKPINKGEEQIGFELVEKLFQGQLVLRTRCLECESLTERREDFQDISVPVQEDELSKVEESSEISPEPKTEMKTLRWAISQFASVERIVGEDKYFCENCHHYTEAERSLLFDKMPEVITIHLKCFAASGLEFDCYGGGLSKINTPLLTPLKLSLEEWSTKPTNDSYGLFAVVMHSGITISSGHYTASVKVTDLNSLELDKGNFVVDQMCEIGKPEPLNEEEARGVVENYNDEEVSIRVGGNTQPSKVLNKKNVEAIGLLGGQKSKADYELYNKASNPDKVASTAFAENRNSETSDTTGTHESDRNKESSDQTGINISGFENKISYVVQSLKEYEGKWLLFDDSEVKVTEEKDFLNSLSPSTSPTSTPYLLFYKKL
# Sequence (Q8TAF3 whole entry partner): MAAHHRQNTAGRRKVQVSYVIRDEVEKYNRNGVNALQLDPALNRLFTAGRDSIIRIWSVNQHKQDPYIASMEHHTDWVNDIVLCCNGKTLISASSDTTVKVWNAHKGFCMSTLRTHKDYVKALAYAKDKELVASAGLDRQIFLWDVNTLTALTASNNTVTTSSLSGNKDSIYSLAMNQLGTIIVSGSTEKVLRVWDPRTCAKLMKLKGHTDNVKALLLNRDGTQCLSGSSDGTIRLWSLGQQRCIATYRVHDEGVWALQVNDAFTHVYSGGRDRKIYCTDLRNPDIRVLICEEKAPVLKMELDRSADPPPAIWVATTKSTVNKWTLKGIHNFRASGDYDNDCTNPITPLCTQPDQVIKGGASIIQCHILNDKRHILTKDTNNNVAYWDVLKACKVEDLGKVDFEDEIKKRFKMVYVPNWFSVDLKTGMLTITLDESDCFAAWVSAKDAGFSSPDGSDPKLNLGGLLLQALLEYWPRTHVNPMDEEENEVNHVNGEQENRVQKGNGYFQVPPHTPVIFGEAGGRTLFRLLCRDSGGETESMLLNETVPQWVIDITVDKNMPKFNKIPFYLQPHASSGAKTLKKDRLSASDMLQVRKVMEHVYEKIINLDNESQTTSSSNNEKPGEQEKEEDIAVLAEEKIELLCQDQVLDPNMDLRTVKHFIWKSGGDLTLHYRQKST
# Procedure Summary: USP1/UAF1 deubiquitination assay (ubiquitin-rhodamine 110 substrate)
# Condition Details: read-out: USP1 IC50 (Ub-Rho)
pIC50: −log10 of the molar value.
Property: pIC50

CCn1cc(C(F)(F)F)nc1-c1ccc(CN2C(=O)CCn3nc(-c4c(OC)ncnc4C4CC4)cc32)cc1 ... > 7.00
COc1cn(C)nc1-c1ccc(CN2C(=O)CCn3nc(-c4c(Cl)cnn4C(C)C)cc32)cc1Cl ... 6.30 to 7.00
Cc1cnn(C(C)C)c1-c1cc2n(n1)CCC(=O)N2Cc1ccc(-c2nc(C(F)(F)F)cn2C)cc1 ... > 7.00
COc1cccnc1-c1ccc(CN2C(=O)CCn3nc(-c4c(OC)ncnc4C4CC4)cc32)cc1Cl ... 6.30 to 7.00
CCn1cc(C(F)(F)F)nc1-c1ccc([C@H](C)N2C(=O)CCn3nc(-c4c(OC)ncnc4C4CC4)cc32)cc1F ... 6.30 to 7.00
CCn1cc(C(F)(F)F)nc1-c1ccc(OC2CCCn3nc(-c4c(Cl)cnn4C(C)C)cc32)cc1 (centres unmarked) ... > 7.00
CCn1nc(C(F)(F)F)nc1-c1ccc(CN2C(=O)CCn3nc(-c4c(OC)ncnc4C4CC4)cc32)cc1 ... < 6.30
COc1ncnc(C2CC2)c1-c1nc2n(n1)CCC(=O)N2Cc1ccc(-c2ncccc2OC(C)C)c(Cl)c1 ... 6.30 to 7.00
CC(C)n1ncc(Cl)c1-c1cc2n(n1)CCC(=O)N2Cc1ccc(-c2nc(C(F)(F)F)cn2CCF)cc1 ... > 7.00
COc1ncnc(C2CC2)c1-c1cc2n(n1)CCCC2Nc1ccc(-c2nc(C(F)(F)F)cn2CCF)cc1 (centres unmarked) ... > 7.00
CC(CF)n1cc(C(F)(F)F)nc1-c1ccc(NC2CCCn3nc(-c4c(Cl)cnn4C(C)C)cc32)cc1 (centres unmarked) ... > 7.00
COc1ccnc(-c2ccc(CN3C(=O)CCn4nc(-c5c(Cl)cnn5C(C)C)cc43)cc2Cl)n1 ... < 6.30
COc1ncnc(C2CC2)c1-c1cc2n(n1)CCC(=O)N2Cc1ccc(-n2nc(C(F)(F)F)cc2OC)c(F)c1 ... > 7.00
CCn1cc(C(F)(F)F)nc1-c1ccc(N(C)C2CCCn3nc(-c4c(Cl)cnn4C(C)C)nc32)cc1 (centres unmarked) ... 6.30 to 7.00
COc1ncnc(C2CC2)c1-c1cc2n(n1)CCC(=O)N2Cc1ccc(-c2nn(C)cc2C)cc1 ... < 6.30
CCn1cc(C(F)(F)F)nc1-c1ccc([C@H](C)N2C(=O)CCn3nc(-c4c(OC)ncnc4C4CC4)nc32)cc1 ... > 7.00
COCc1cccnc1-c1ccc(CN2C(=O)CCn3nc(-c4c(Cl)cnn4C(C)C)cc32)cc1Cl ... 6.30 to 7.00
COc1ncnc(C2CC2)c1-c1nc2n(n1)CCC(=O)N2Cc1ccc(-c2nc(C(F)(F)F)cn2C(C)CF)cc1 (centres unmarked) ... 6.30 to 7.00
CCn1cc(C(F)(F)F)nc1-c1ccc(NC2CCCn3nc(-c4c(C#N)cnn4C(C)C)cc32)cc1F (centres unmarked) ... > 7.00
COc1cc(CN2C(=O)CCn3nc(-c4c(Cl)cnn4C(C)C)nc32)ccc1-c1nc(C(F)(F)F)cn1C(C)C ... > 7.00
COc1ccc(-c2ccc(CN3C(=O)CCn4nc(-c5c(Cl)cnn5C(C)C)cc43)cc2Cl)nn1 ... < 6.30
CCn1cc(C(F)(F)F)nc1-c1ccc([C@H](C)n2c(=O)ccn3nc(-c4c(OC)ncnc4C4CC4)nc23)cc1 ... > 7.00
CCn1cc(C(F)(F)F)nc1-c1ccc([C@H](C)N2C(=O)CCn3nc(-c4c(OC)ncnc4C4CC4)nc32)cc1Cl [Example 211] ... > 7.00
CCn1cc(C(F)(F)F)nc1-c1ccc([C@@H](C)N2C(=O)CCn3nc(-c4c(OC(F)F)ncnc4C4CC4)nc32)cc1 ... > 7.00
CCn1cc(C(F)(F)F)nc1-c1ccc(CN2C(=O)CCn3nc(-c4c(Cl)cnn4C(C)C)cc32)cc1F ... > 7.00
CCn1cc(C(F)(F)F)nc1-c1ccc(CN2C(=O)CCn3nc(-c4c(OC(F)F)ncnc4C4CC4)nc32)cc1 ... > 7.00
